# measured.target: Recombinant human FAP (Homo sapiens, UniProt Q12884)
# Construct: purchased R&D systems
# Sequence (Q12884 whole entry): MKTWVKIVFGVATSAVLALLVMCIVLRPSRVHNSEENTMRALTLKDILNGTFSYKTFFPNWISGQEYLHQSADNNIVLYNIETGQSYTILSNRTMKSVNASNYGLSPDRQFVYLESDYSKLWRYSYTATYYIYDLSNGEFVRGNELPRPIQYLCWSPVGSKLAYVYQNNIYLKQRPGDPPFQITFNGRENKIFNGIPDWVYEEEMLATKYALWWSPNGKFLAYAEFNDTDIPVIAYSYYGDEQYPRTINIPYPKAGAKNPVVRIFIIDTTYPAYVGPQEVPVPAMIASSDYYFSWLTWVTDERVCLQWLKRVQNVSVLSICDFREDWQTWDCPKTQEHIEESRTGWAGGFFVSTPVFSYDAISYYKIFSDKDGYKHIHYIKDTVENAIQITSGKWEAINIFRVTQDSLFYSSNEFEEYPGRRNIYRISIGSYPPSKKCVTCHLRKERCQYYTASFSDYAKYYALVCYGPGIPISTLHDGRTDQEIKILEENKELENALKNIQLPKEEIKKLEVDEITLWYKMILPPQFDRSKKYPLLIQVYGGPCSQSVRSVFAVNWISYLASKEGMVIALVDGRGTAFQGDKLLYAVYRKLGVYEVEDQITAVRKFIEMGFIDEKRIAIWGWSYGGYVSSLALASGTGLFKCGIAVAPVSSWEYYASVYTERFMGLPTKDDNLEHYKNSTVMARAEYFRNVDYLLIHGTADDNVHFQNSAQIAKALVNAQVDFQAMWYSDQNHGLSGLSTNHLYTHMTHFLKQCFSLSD
# method.summary: FAP inhibition, fluorogenic substrate Z-Gly-Pro-AMC
# Format: biochemical
# test.conditions: 25° C., Z-Gly-Pro-AMC substrate
assay.endpoint: IC50 (nM)
Value expressed in nM; do not type the unit.

Solved cases (6 shown):
N#C[C@@H]1CCCN1C(=O)CN1CC[C@H](Oc2cccc3c2CCC(=O)N3)C1 [Example 76]    53.6
N#C[C@@H]1CC(F)(F)CN1C(=O)CN1CC[C@H](Oc2ccnc3c(C(F)(F)F)cccc23)C1 [Example 104]    1.14
CN(c1ccnc2ccccc12)[C@H]1CCN(CC(=O)N2CCC[C@H]2C#N)C1 [Example 143]    55.4
N#C[C@@H]1CCCN1C(=O)CN1CC[C@H](Nc2cccc3sccc23)C1 [Example 20]    4.53
N#C[C@@H]1CC(F)(F)CN1C(=O)CN1CC[C@H](Oc2ccc(Cl)c3cccnc23)C1 [Example 109]    1.8
N#C[C@@H]1CC(F)(F)CN1C(=O)CN1CC[C@H](Nc2ccc(-c3ccccc3)cc2)C1 [Example 14]    18.7

response.value for Cc1c(N(C)[C@H]2CCN(CC(=O)N3CCC[C@H]3C#N)C2)cnc2ccccc12 [Example 149] (field: IC50) = 9.9

response.value for COc1ccc(NC2CCN(CC(=O)N3C[C@@H](F)C[C@H]3C#N)CC2)c2cccnc12 [Example 135] (field: IC50) = 3.47

---

# measured.target: recombinant human DPP9 (Homo sapiens, UniProt Q86TI2)
# Construct: purchased R&D Systems
# Sequence (Q86TI2 whole entry): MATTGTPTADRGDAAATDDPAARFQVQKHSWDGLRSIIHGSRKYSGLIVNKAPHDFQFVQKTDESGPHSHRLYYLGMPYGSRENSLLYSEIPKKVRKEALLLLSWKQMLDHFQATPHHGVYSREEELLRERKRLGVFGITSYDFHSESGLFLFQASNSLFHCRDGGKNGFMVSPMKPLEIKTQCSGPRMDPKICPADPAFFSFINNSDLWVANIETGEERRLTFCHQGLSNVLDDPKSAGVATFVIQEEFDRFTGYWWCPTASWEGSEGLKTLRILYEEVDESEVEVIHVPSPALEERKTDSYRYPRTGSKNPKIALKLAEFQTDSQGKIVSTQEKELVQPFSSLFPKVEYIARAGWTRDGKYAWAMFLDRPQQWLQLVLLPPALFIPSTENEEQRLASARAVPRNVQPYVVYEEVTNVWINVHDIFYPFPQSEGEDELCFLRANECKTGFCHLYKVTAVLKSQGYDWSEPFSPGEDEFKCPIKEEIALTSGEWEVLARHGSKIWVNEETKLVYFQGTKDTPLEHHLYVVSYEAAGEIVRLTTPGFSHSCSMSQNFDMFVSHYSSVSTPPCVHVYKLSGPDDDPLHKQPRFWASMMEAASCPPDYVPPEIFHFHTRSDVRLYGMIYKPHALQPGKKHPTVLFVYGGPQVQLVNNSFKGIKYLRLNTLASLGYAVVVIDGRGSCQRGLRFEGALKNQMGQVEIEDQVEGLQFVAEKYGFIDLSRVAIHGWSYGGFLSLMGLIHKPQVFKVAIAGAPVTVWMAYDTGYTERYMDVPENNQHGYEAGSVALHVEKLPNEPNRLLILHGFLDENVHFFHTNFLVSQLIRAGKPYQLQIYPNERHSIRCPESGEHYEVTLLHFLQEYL
# method.summary: DPP9 inhibition, fluorogenic substrate H-Gly-Pro-AMC
# Type: biochemical
# test.conditions: recombinant human DPP9
# maps each entry to its log10(IC50)
Please be aware that the numbers have been log10-transformed from IC50 in µM.

N#C[C@@H]1C[C@H](F)CN1C(=O)CN1CC[C@@H](Nc2cc(F)c3ncccc3c2)C1 [Example 214]    -0.01

Proceed to the following item.
response.value for N#C[C@@H]1C[C@H](F)CN1C(=O)CN1CC[C@H](Nc2ccc(OCc3ccccc3)c3ncccc23)C1 [Example 268] (field: log10(IC50)) = -0.06

---

# measured.target: UniProt:P27487
# method.summary: DPP4 inhibition, fluorogenic substrate H-Gly-Pro-AMC
# Format: biochemical
# Parameters: purchased R&D Systems
# test.conditions: recombinant human DPP4
assay.endpoint: IC50

Solved cases (3 shown):
N#C[C@@H]1C[C@H](F)CN1C(=O)CN1CCC(Nc2cnc3nc(Cl)ccc3c2)CC1    ≥ 10 µM
CN(c1cc2ccccc2cn1)C1CCN(CC(=O)N2C[C@@H](F)C[C@H]2C#N)CC1    > 10 µM
N#C[C@@H]1CCCN1C(=O)CN1CC[C@H](Nc2c(F)ccc3ncccc23)C1    > 10 µM

response.value for "N#Cc1ccc2c(N[C@H]3CCN(CC(=O)N4CCC[C@H]4C#N)C3)cccc2n1" (field: IC50) = > 10 µM

---

# maps each entry to its pIC50
# measured.target: DPP4 (Homo sapiens)
# Sequence (P27487 whole entry): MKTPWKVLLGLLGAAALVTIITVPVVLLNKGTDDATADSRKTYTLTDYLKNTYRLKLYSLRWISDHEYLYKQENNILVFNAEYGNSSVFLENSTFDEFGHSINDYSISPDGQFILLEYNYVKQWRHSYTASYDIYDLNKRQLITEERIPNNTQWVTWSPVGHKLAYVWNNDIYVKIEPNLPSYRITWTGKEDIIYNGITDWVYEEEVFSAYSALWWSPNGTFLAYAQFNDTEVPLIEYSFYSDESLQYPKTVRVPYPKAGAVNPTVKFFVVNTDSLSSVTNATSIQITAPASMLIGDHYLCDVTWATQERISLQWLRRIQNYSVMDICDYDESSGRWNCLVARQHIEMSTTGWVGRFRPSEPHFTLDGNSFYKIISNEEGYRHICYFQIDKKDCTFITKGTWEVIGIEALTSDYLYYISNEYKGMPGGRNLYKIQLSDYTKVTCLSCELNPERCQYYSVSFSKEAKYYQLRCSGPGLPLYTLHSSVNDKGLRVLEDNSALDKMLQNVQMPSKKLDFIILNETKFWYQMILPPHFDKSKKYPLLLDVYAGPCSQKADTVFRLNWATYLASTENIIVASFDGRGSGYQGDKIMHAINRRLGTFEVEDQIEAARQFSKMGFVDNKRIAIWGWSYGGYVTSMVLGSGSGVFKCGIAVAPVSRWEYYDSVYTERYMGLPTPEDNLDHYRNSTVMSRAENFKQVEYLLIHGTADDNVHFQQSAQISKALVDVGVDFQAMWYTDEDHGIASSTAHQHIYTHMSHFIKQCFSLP
# method.summary: DPP4 inhibition, fluorogenic substrate H-Gly-Pro-AMC
# Assay type: biochemical
# Parameters: purchased R&D Systems
# test.conditions: recombinant human DPP4
FYI, pIC50 means -log10 of a concentration in mol per litre.

N#C[C@@H]1CCCN1C(=O)CN1CCC(Oc2ccc(Cl)c3ncccc23)CC1 [Example 431]    4.71
Cc1cncc2cccc(NC3CCN(CC(=O)N4C[C@@H](F)C[C@H]4C#N)CC3)c12 [Example 354]    5.68

response.value for N#C[C@@H]1CCCN1C(=O)CN1CC[C@@H](Nc2cccc3ncc(Cl)cc23)C1 [Example 203] (field: pIC50) = 5.33

response.value for N#C[C@@H]1C[C@H](F)CN1C(=O)CN1CCC(Nc2cccc3ccncc23)CC1 [Example 342] (field: pIC50) = 5.49

response.value for N#Cc1ccc2c(OC3CCN(CC(=O)N4C[C@@H](F)C[C@H]4C#N)CC3)cccc2n1 [Example 417] (field: pIC50) = 5.26

response.value for N#C[C@@H]1C[C@H](F)CN1C(=O)CN1CCC(Oc2ccnc3c(F)cccc23)CC1 [Example 435] (field: pIC50) = 5.32

---

# measured.target: recombinant human DPP7 (Homo sapiens)
# Construct: purchased R&D Systems
# method.summary: DPP7 inhibition, fluorogenic substrate Lys-Pro-AMC
# Format: biochemical
# test.conditions: recombinant human DPP7
pIC50: −log10 of the molar value.
Criterion: pIC50 meeting or surpassing 6. Met: true. Not met: false.

N#C[C@@H]1C[C@H](F)CN1C(=O)CN1CC[C@H](Nc2ccc(F)c3ncccc23)C1    false
CNC(=O)c1ccc(N[C@H]2CCN(CC(=O)N3CCC[C@H]3C#N)C2)c2cccnc12    false
N#C[C@@H]1C[C@H](F)CN1C(=O)CN1CC[C@H](Nc2ccc(O)c3ncccc23)C1    false
N#C[C@@H]1CCCN1C(=O)CN1CC[C@H](Nc2ccc(C(=O)Nc3cccnc3)c3ncccc23)C1    true
CCN(c1ccc2ncccc2c1)C1CCN(CC(=O)N2C[C@@H](F)C[C@H]2C#N)CC1    true

Query block: Form field: pIC50 at least 6? Entry: "CC(=O)Nc1ccc(N[C@H]2CCN(CC(=O)N3CCC[C@H]3C#N)C2)c2cccnc12"
Result block: true

Query block: Form field: pIC50 at least 6? Entry: "N#C[C@@H]1CCCN1C(=O)CN1CC[C@@H](Nc2cccc3ncc(Cl)cc23)C1"
Result block: false

---

# measured.target: recombinant human DPP8 (Homo sapiens)
# Construct: purchased PBS Bioscience
# method.summary: DPP8 inhibition, fluorogenic substrate Z-Ala-Pro-AMC
# Assay type: biochemical
# test.conditions: 25° C., Z-Ala-Pro-AMC substrate
# maps each entry to its IC50

Solved cases (3 shown):
Cc1c(N(C)[C@H]2CCN(CC(=O)N3CCC[C@H]3C#N)C2)cnc2ccccc12    ≥ 100 µM
CN(c1ccc2ncccc2c1)[C@@H]1CCN(CC(=O)N2CCC[C@H]2C#N)C1    ≥ 100 µM
N#C[C@@H]1CCCN1C(=O)CN1CC[C@H](Oc2cccc3cccnc23)C1    > 100 µM

response.value for "N#C[C@@H]1CCCN1C(=O)CN1CCC(Nc2cc(F)cc3ncccc23)CC1" (field: IC50) = > 30 µM

---

# measured.target: recombinant human DPP7 (Homo sapiens, UniProt Q9UHL4)
# Construct: purchased R&D Systems
# method.summary: DPP7 inhibition, fluorogenic substrate Lys-Pro-AMC
# Type: biochemical
# test.conditions: recombinant human DPP7
# maps each entry to its pIC50
FYI, pIC50 means -log10 of a concentration in mol per litre.

Cc1ccc2ncccc2c1N[C@H]1CCN(CC(=O)N2C[C@@H](F)C[C@H]2C#N)C1 [Example 259]    5.48
N#C[C@@H]1C[C@H](F)CN1C(=O)CN1CCC(Nc2cccc3cnc(Cl)cc23)CC1 [Example 352]    5.53
N#C[C@@H]1C[C@H](F)CN1C(=O)CN1CC[C@H](Nc2ccc(NC(=O)c3ccccc3)c3ncccc23)C1 [Example 298]    6.59
COc1cnc2cccc(N[C@@H]3CCN(CC(=O)N4CCC[C@H]4C#N)C3)c2c1 [Example 204]    5.41
N#Cc1cnc2cccc(N[C@H]3CCN(CC(=O)N4C[C@@H](F)C[C@H]4C#N)C3)c2c1 [Example 253]    5.66

response.value for Cc1ccc2ncccc2c1N[C@@H]1CCN(CC(=O)N2C[C@@H](F)C[C@H]2C#N)C1 [Example 180] (field: pIC50) = 5.17

response.value for N#C[C@@H]1C[C@H](F)CN1C(=O)CN1CCC(Nc2cccc3ncc(F)cc23)CC1 [Example 349] (field: pIC50) = 5.70

response.value for N#C[C@@H]1CCCN1C(=O)CN1CC[C@@H](Nc2ccc(F)c3ncccc23)C1 [Example 199] (field: pIC50) = 5.10

response.value for Cc1ccc(N[C@@H]2CCN(CC(=O)N3C[C@@H](F)C[C@H]3C#N)C2)c2cccnc12 [Example 181] (field: pIC50) = 6.67

response.value for N#C[C@@H]1CCCN1C(=O)CN1CCC(Oc2ccc(Cl)c3ncccc23)CC1 [Example 431] (field: pIC50) = 5.20

response.value for N#C[C@@H]1C[C@H](F)CN1C(=O)CN1CC[C@@H](Nc2cccc3ncc(Cl)cc23)C1 [Example 185] (field: pIC50) = 5.89

response.value for CN(c1ccc2cccnc2c1)C1CCN(CC(=O)N2CCC[C@H]2C#N)CC1 [Example 311] (field: pIC50) = 5.60

---

# maps each entry to its log10 of IC50
# measured.target: recombinant human DPP8 (Homo sapiens, UniProt Q6V1X1)
# Construct: purchased PBS Bioscience
# Sequence (Q6V1X1 whole entry): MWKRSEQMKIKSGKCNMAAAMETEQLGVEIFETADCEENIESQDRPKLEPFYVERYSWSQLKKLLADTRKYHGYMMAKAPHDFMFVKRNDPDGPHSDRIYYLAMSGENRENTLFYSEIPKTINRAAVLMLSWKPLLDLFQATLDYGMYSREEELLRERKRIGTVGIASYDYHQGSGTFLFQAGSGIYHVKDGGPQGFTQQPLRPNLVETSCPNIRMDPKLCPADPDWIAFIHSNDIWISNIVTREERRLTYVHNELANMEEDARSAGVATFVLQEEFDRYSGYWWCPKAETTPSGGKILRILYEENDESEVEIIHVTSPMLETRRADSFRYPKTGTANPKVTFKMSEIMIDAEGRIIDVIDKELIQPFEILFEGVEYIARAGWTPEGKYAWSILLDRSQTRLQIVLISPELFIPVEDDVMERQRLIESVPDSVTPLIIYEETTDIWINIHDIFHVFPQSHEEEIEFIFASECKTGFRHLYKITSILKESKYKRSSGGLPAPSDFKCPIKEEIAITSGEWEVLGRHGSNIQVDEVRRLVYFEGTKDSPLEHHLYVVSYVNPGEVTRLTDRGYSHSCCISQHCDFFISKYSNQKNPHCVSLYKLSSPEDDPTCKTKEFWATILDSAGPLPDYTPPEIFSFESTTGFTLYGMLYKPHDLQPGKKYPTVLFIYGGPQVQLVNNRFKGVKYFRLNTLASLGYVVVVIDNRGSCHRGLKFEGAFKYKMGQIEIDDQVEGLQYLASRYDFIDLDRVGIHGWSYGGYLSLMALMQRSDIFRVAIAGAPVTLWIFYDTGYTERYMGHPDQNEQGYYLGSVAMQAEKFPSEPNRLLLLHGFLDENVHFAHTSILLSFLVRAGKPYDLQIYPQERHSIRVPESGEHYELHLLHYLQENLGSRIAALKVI
# method.summary: DPP8 inhibition, fluorogenic substrate Z-Ala-Pro-AMC
# Assay type: biochemical
# test.conditions: recombinant human DPP8
Please be aware that the numbers have been log10-transformed from IC50 in µM.

Cc1ccc(N[C@H]2CCN(CC(=O)N3CCC[C@H]3C#N)C2)c2cccnc12    1.04

The molecule "N#C[C@@H]1C[C@H](F)CN1C(=O)CN1CCC(Nc2cccc3ccncc23)CC1" , tested on recombinant human DPP8 (Homo sapiens, UniProt Q6V1X1), showed log10 of IC50 of 1.60

The molecule "N#C[C@@H]1CCCN1C(=O)CN1CCC(Nc2ccc(C(=O)Nc3cccnc3)c3ncccc23)CC1" , tested on recombinant human DPP8 (Homo sapiens, UniProt Q6V1X1), showed log10 of IC50 of -0.01

The molecule "N#C[C@@H]1C[C@H](F)CN1C(=O)CN1CC[C@H](Nc2ccnc3c(C(F)(F)F)cccc23)C1" , tested on recombinant human DPP8 (Homo sapiens, UniProt Q6V1X1), showed log10 of IC50 of 0.90

The molecule "N#C[C@@H]1C[C@H](F)CN1C(=O)CN1CCC(Nc2cccc3cnccc23)CC1" , tested on recombinant human DPP8 (Homo sapiens, UniProt Q6V1X1), showed log10 of IC50 of 0.38

The molecule "N#C[C@@H]1C[C@H](F)CN1C(=O)CN1CCC(Nc2ccc(C(=O)Nc3ccon3)c3ncccc23)CC1" , tested on recombinant human DPP8 (Homo sapiens, UniProt Q6V1X1), showed log10 of IC50 of -0.50
